B1: Chromodomain-helicase-DNA-binding protein 5, residues 411 to 463; numbered along this chain, Q8TDI0 (parent)
chain: EEDDHMEFCRVCKDGGELLCCDACPSSYHLHCLNPPLPEIPNGEWLCPRCTCP

# Variants of: B1
# procedure.details: abundance fitness (aPCA) (normalised: wild type 0, dead -1); higher = more abundant; growth selection in yeast, the domain comes from the species named
# measurement.conditions: Homo sapiens
This section presents variants with their documented abundance fitness values.
Just the number, please, no unit after it.

Worked set:
- mutant.id: "P35I"
  quantity.name: "abundance fitness"
  observed.result: -0.183
- mutant.id: "E44N"
  quantity.name: "abundance fitness"
  observed.result: -0.083

INPUT: Report abundance fitness for `E17Q` please.
OUTPUT: 0.032

INPUT: Report abundance fitness for `C52Q` please.
OUTPUT: -0.121

INPUT: Report abundance fitness for `I40Q` please.
OUTPUT: 0.132

INPUT: Report abundance fitness for `Y28F` please.
OUTPUT: -0.007

INPUT: Report abundance fitness for `E44F` please.
OUTPUT: -0.361

INPUT: Report abundance fitness for `L37S` please.
OUTPUT: 0.023

INPUT: Report abundance fitness for `E39I` please.
OUTPUT: -0.138

INPUT: Report abundance fitness for `C52N` please.
OUTPUT: 0.222

INPUT: Report abundance fitness for `E39G` please.
OUTPUT: -0.135

INPUT: Report abundance fitness for `C32Q` please.
OUTPUT: -0.72

INPUT: Report abundance fitness for `G43N` please.
OUTPUT: 0.039

INPUT: Report abundance fitness for `D22W` please.
OUTPUT: -0.082

INPUT: Report abundance fitness for `H29R` please.
OUTPUT: -0.741

INPUT: Report abundance fitness for `L30A` please.
OUTPUT: 0.072

INPUT: Report abundance fitness for `W45I` please.
OUTPUT: -0.667

INPUT: Report abundance fitness for `I40L` please.
OUTPUT: 0.147

INPUT: Report abundance fitness for `P41I` please.
OUTPUT: -0.159

INPUT: Report abundance fitness for `C50W` please.
OUTPUT: -0.477

INPUT: Report abundance fitness for `P36F` please.
OUTPUT: -0.091

INPUT: Report abundance fitness for `L18C` please.
OUTPUT: -0.288

INPUT: Report abundance fitness for `P35D` please.
OUTPUT: -0.246

INPUT: Report abundance fitness for `Y28V` please.
OUTPUT: -0.428

INPUT: Report abundance fitness for `C50D` please.
OUTPUT: -0.4

INPUT: Report abundance fitness for `P35L` please.
OUTPUT: -0.315

INPUT: Report abundance fitness for `I40D` please.
OUTPUT: -0.534

INPUT: Report abundance fitness for `E39M` please.
OUTPUT: -0.113

INPUT: Report abundance fitness for `L18E` please.
OUTPUT: -0.812
